The values you see were collected from ChEMBL document CHEMBL3988442.

- Tested on: Mycobacterium tuberculosis
- TEST NAME: Cornell M. t heat shock assay; also: in the data most compounds retested in dose-response had high values
- Type: functional, organism-based
- Parameters: dose or concentration left out as unconfirmed
Out of some 69,000 compounds screened, about 950 (1.4%) showed an effect of 50% or more. The sample as a whole holds a higher share of strong results than the screen did.
# binarize Percent Effect: threshold 20% inclusive, high side t, low side f

COMPOUND | ASSIGNED CLASS
O=C(N[C@@H]1CN(Cc2ccoc2)[C@@H]2CCCO[C@@H]21)C1CC1.O=C(O)C(F)(F)F | f
COCCNC(=O)c1sc2ccccc2c1C1CCC(CN)CC1.Cl (centres undefined) | f
CCN1C[C@H]2[C@@H](C1)N(S(=O)(=O)c1ccccc1)CC[C@H]2OC.O=C(O)C(F)(F)F | f
Cl.NCC1CCC(c2c(C(=O)NCCO)sc3ccccc23)CC1 (centres undefined) | t
CN(C)CC(=O)N1CCC2(CC1)CN(Cc1cccnc1)C(=O)CO2 | f
Cc1ccc(CN2CCO[C@H]3[C@H](OCc4cccnc4)CC[C@@H]32)o1.O=C(O)C(F)(F)F.O=C(O)C(F)(F)F | f
Cc1ccc(CN2CCC3(CC2)C(c2ccccc2)CC(=O)N3C)o1.O=C(O)C(F)(F)F (centres undefined) | t

// next entry
Decide: Percent Effect of O=C(O)C(F)(F)F.O=C1C[C@H]2[C@@H](CCN2C(=O)c2ccc[nH]2)N1CCN1CCCC1 >= 20%?
f
